Below, each entry is listed with its recorded Neutralization IC50 (RSV subtype A).
- MEASURED TARGET: RSV F on RSV subtype A virus (RSV-A2) (Respiratory Syncytial Virus, subtype A, …, UniProt P03420 26-574)
- ASSAY TEXT: cell-based or functional assay

Sample records with Neutralization IC50 (RSV subtype A):
BINDER	Neutralization IC50 (RSV subtype A)
ADI-41814 (antibody, V domains shown, also called Ab 921; Antibody Number 921) VH: EVQLLESGPTLVKPTQTLTLTCTFSGFSLSTFGVGVGWIRQPPGKALECLALIYWDDDKRYSPSLKSRLTITRDTSKNQVVLTMTNMDPVDTATYYCAHRRSSTVTTGFFDYWGRGTLVTVSS VL: QPVLTQPPSVSGAPGQRVTVSCTGNSSNIGAGHGAHWYQQLPGTAPKLLIYGSTDRPSGVPDRFFGSQSGTSASLVITELRAEDEADYYCQSFDSSLSIWVFGGGTKLTVL	> 25 µg/mL
ADI-41831 (antibody, V domains shown) VH: EVQLLESGGGLVKPGGSLRLSCAASGFTFSSYAMHWVRQPPGKGLEWVSSISASSSFINYADSVKGRFTISRDGARNSLYLQMNSLRAEDTAVYYCVREDYDSSGYGLHWFDPWGQGTTVTVSS VL: SYVLTQPPSVSGAPGQRVTISCTGSSSNIGAGYDVHWYQQFPGTAPKLLMYGNTNRPSGVPDRFSGSKSGTSASLAITGLQAEDEADYYCQSYDRSLSGWVFGGGTKLTVL	5.21 µg/mL

**Query** Supply measured Neutralization IC50 (RSV subtype A) of ADI-41817 (antibody, V domains shown) VH: QVQLVQSGAEVKKPGESLKISCKGPGYSFTTYWIGWVRQMPGKGLEWMGIIYPGDSDTKYSPSFQGQVTITADKSIATAYLQWSRLKASDTAVYYCATVVTYADNIRWFDSWGQGTLVTVSS VL: QSALTQPASVSGSPGQSITISCTGTSGDVGGYKFVSWYQHHPGKAPKLVIYDVANRPSGVSDRFSGSKSGTTASLTISGLQAEDEADYYCSSYTSSSTYVFGTGTKVTAL in your reply.
**Result** > 25 µg/mL
